Measured Phage binding ELISA Background signal of individual entries
System: PSMA Fab
Sequence (as listed by the source): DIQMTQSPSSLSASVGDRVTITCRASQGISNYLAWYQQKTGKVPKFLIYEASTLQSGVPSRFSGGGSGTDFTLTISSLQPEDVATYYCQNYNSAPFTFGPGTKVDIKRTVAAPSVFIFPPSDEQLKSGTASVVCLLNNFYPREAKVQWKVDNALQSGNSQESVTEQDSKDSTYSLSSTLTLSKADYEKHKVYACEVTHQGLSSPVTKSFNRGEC
Sequence (as listed by the source): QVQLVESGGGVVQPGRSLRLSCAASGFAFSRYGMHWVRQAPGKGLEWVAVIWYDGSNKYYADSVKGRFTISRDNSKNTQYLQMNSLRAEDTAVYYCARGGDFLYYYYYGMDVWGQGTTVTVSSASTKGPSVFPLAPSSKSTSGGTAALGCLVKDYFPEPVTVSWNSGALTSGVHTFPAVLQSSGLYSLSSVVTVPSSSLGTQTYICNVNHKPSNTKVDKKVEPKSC
Test: Phage binding ELISA, PSMA Fab, with or without PSMA antigen (peptide-179 and peptide-180 libraries); note: unit not given here
Conditions: peptide-180 library clonal phage; background (no Fab)
Method: Once the phage optimization libraries were completed, phage libraries were bio-panned using PSMA Fab loaded beads. Multiple rounds of panning were performed where bacteriophage was allowed to bind to PSMA Fab loaded beads. washed. eluted, and amplified. After panning, phage infected bacteria were plated out and colonies picked into 96 well blocks. Clonal phage was then amplified and separated from bacterial cells via centrifugation. […]
Where no end group is shown, it is not given here.
Answer with a bare number; do not write a unit.

Consider the reported Phage binding ELISA Background signal for these substances:
• Phage-2842 (PEVMCRPVWMCLGF; not fully specified; cysteine pairing not given here) = 0.0609
• Phage-2853 (MLPLCVPAWMCSGF; not fully specified; cysteine pairing not given here) = 0.061
• Phage-2844 (VVAMCKPAWMCAGL; not fully specified; cysteine pairing not given here) = 0.0591
• Phage-2818 (SVHMCKPPWMCQSM) = 0.0587

Exam item: Supply Phage binding ELISA Background signal value. Item: Phage-2815 (IDKWCVPAWMCSPA)
Marked response: 0.0608

Exam item: For the substance Phage-2811 (VPKWCTPSWMCEFT) , give its measured Phage binding ELISA Background signal value.
Marked response: 0.0593
